Give measured inhibition for each item. Keep answers brief.
biological target: Sodium/glucose cotransporter 1 (Homo sapiens) (UniProt P13866); test: Inhibition of human SGLT1 expressed in COS1 cells assessed as [14C]methyl-alpha-D-glucopyranoside uptake at 50 uM; assay type: cell-based; settings: COS-1
Sequence (P13866 whole entry): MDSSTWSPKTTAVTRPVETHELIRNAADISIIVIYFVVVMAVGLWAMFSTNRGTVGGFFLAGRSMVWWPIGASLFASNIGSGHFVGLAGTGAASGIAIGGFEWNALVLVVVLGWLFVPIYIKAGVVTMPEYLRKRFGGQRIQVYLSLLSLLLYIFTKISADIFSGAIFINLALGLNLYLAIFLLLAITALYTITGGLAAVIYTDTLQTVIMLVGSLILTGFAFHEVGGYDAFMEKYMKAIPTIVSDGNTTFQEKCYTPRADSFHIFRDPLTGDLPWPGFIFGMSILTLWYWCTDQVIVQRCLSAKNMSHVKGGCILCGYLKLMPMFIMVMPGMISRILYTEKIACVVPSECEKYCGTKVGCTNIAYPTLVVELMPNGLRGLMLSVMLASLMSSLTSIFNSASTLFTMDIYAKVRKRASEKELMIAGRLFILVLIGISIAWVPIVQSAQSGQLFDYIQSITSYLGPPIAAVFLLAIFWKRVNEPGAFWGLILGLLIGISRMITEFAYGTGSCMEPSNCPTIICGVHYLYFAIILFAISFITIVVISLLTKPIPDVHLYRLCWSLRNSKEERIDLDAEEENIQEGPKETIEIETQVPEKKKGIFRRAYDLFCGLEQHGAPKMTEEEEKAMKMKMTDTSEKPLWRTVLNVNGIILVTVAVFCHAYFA
Write it as a number; the unit % goes unstated.

inhibition measured on `C=C(C)[C@H](CC=C(C)C)Cc1c(O)cc(OC)c(C(=O)/C=C/c2ccc(O)cc2O)c1O` = 71.1

inhibition measured on C=C(C)C(CC=C(C)C)Cc1c(O)cc(OC)c2c1O[C@H](c1ccc(O)cc1O)CC2=O (stereo partly drawn) = 98.8

inhibition measured on C=C(C)C(CC=C(C)C)Cc1c(O)cc(OC)c2c1O[C@H](c1ccc(O)cc1O)[C@H](O)C2=O (stereo partly drawn) = 58.4

inhibition measured on `C=C(C)[C@H](CCC(C)(C)O)Cc1c(O)cc(OC)c2c1O[C@H](c1ccc(O)cc1O)[C@H](O)C2=O` = 29.7

inhibition measured on `C=C(C)[C@H](CC=C(C)C)Cc1c(O)cc(O)c2c1O[C@H](c1ccc(O)cc1O)CC2=O` = 99.2
